Data provenance is ChEMBL document CHEMBL1125161.

measured.on: Chymotrypsinogen A (Bos taurus) (UniProt P00766)
protocol.summary: Inhibitory activity against alpha-chymotrypsin
property.measured: k obs (s⁻¹)

Solved entries (count: 2):
{"columns": ["molecule", "k obs, s⁻¹"],
 "data": [
  ["CCOC(=O)[C@H](Cc1ccc(OCC2CO2)cc1)NC(=O)c1ccccc1 (stereo not given in full)", 0.00055],
  ["O=C(N[C@@H](Cc1ccc(OCC2CO2)cc1)C(=O)Nc1ccc([N+](=O)[O-])cc1)c1ccccc1 (stereo not given in full)", 0.00037]
]}

I: CCOC(=O)[C@H](Cc1ccc(OCCCC2CO2)cc1)NC(=O)c1ccccc1 (stereo not given in full)
II: CCOC(=O)[C@H](Cc1ccc(OCCC2CO2)cc1)NC(=O)c1ccccc1 (stereo not given in full)
III: O=C(N[C@@H](Cc1ccc(OCCC2CO2)cc1)C(=O)Nc1ccc([N+](=O)[O-])cc1)c1ccccc1 (stereo not given in full)
Place the items in sequence of falling k obs. Output spec: a listing of the labels in the requested order.
III, II, I

###

measured.on: Chymotrypsinogen A (Bos taurus)
property.measured: pKi
Just the number, please; pKi means minus log10 of the concentration in mol/L.

Form field: pKi recorded for O=C(N[C@@H](Cc1ccc(OCCC2CO2)cc1)C(=O)Nc1ccc([N+](=O)[O-])cc1)c1ccccc1 (stereo partly specified) with Chymotrypsinogen A (Bos taurus) (enter value)
4.23

###

measured.on: Chymotrypsinogen A (Bos taurus)
protocol.summary: The ratio (ki + kH)/ki (turnover ratio) was determined using ultimate activity assay
property.measured: Ratio

{"columns": ["compound", "measured.on", "Ratio"],
 "data": [
  ["O=C(N[C@@H](Cc1ccc(OCCC2CO2)cc1)C(=O)Nc1ccc([N+](=O)[O-])cc1)c1ccccc1 (stereo not given in full)", "Chymotrypsinogen A (Bos taurus)", 20],
  ["CCOC(=O)[C@H](Cc1ccc(OCC2CO2)cc1)NC(=O)c1ccccc1 (stereo not given in full)", "Chymotrypsinogen A (Bos taurus)", 68]
]}

A: O=C(N[C@@H](Cc1ccc(OCC2CO2)cc1)C(=O)Nc1ccc([N+](=O)[O-])cc1)c1ccccc1 (stereo not given in full)
B: CCOC(=O)[C@H](Cc1ccc(OCCCC2CO2)cc1)NC(=O)c1ccccc1 (stereo not given in full)
C: CCOC(=O)[C@H](Cc1ccc(OCCC2CO2)cc1)NC(=O)c1ccccc1 (stereo not given in full)
Sort ascending by Ratio. When ranking, write the labels in the order the request describes.
C, B, A
(C: 13, B: 26, A: 80)

###

measured.on: Chymotrypsinogen A (Bos taurus)
protocol.summary: Inhibitory activity against alpha-chymotrypsin
property.measured: kH (s⁻¹)

{"columns": ["molecule", "measured.on", "kH / s⁻¹"],
 "data": [
  ["O=C(N[C@@H](Cc1ccc(OCC2CO2)cc1)C(=O)Nc1ccc([N+](=O)[O-])cc1)c1ccccc1 (stereo not given in full)", "Chymotrypsinogen A (Bos taurus)", 0.61]
]}

1: CCOC(=O)[C@H](Cc1ccc(OCC2CO2)cc1)NC(=O)c1ccccc1 (stereo not given in full)
2: CCOC(=O)[C@H](Cc1ccc(OCCC2CO2)cc1)NC(=O)c1ccccc1 (stereo not given in full)
3: CCOC(=O)[C@H](Cc1ccc(OCCCC2CO2)cc1)NC(=O)c1ccccc1 (stereo not given in full)
4: O=C(N[C@@H](Cc1ccc(OCCC2CO2)cc1)C(=O)Nc1ccc([N+](=O)[O-])cc1)c1ccccc1 (stereo not given in full)
Order the 4 molecules from highest to lowest kH. // format: requested-order list of labels
1, 4, 2, 3

###

measured.on: Chymotrypsinogen A (Bos taurus)
protocol.summary: Ratio of the kinetic constants kH versus ki was reported
property.measured: Ratio

{"columns": ["compound", "Ratio"],
 "data": [
  ["CCOC(=O)[C@H](Cc1ccc(OCC2CO2)cc1)NC(=O)c1ccccc1 (stereo not given in full)", 300]
]}

a: O=C(N[C@@H](Cc1ccc(OCCC2CO2)cc1)C(=O)Nc1ccc([N+](=O)[O-])cc1)c1ccccc1 (stereo not given in full)
b: CCOC(=O)[C@H](Cc1ccc(OCCCC2CO2)cc1)NC(=O)c1ccccc1 (stereo not given in full)
c: O=C(N[C@@H](Cc1ccc(OCC2CO2)cc1)C(=O)Nc1ccc([N+](=O)[O-])cc1)c1ccccc1 (stereo not given in full)
d: CCOC(=O)[C@H](Cc1ccc(OCCC2CO2)cc1)NC(=O)c1ccccc1 (stereo not given in full)
Arrange the 4 entries by Ratio so the values rise. Returns: the labels listed in the requested order.
d, a, b, c

###

measured.on: Chymotrypsinogen A (Bos taurus)
protocol.summary: Ratio of the kinetic constants (ki X 10e3) versus Ki was reported
property.measured: Ratio (M⁻¹ min⁻¹)

// solved cases for Ratio follow
{"columns": ["compound", "property.measured", "numeric.value"],
 "data": [
  ["CCOC(=O)[C@H](Cc1ccc(OCCC2CO2)cc1)NC(=O)c1ccccc1 (stereo not given in full)", "Ratio", 14600],
  ["O=C(N[C@@H](Cc1ccc(OCC2CO2)cc1)C(=O)Nc1ccc([N+](=O)[O-])cc1)c1ccccc1 (stereo not given in full)", "Ratio", 3000],
  ["CCOC(=O)[C@H](Cc1ccc(OCCCC2CO2)cc1)NC(=O)c1ccccc1 (stereo not given in full)", "Ratio", 2400]
]}

1: CCOC(=O)[C@H](Cc1ccc(OCC2CO2)cc1)NC(=O)c1ccccc1 (stereo not given in full)
2: O=C(N[C@@H](Cc1ccc(OCCC2CO2)cc1)C(=O)Nc1ccc([N+](=O)[O-])cc1)c1ccccc1 (stereo not given in full)
Between the entries labelled 1 and 2 , which has a larger Ratio value on record? Answer with the label corresponding to your selection.
2
(2: 14000 M⁻¹ min⁻¹, 1: 260 M⁻¹ min⁻¹)

###

protocol.summary: Inhibitory activity against subtilisin
property.measured: Ki (µM)
Field: numeric (µM). Do not append units.

Could you tell me which Ki is on file for CCOC(=O)[C@H](Cc1ccc(OCCC2CO2)cc1)NC(C)=O (stereo partly specified) ?
140
